Assay: ASC/caspase-1 reporter retest in S. cerevisiae at one dose, specificity check for NALP1 project (AID 488857)
Conditions: S. cerevisiae ASC/Caspase-1, beta-galactosidase luminescence, 24 h; at 10 µM; active compounds read high
The campaign covered roughly 1,400 compounds. About 560 (40%) were called active. So high a share suggests a set chosen from earlier hits. Some of the results follow.
So basically, the class depends on measured inhibition, and the ranges are low class (below 30%), middle class (30% to below 40%), high class (40% or more)

compound	answer.label
O=C(CCCN1C(=O)c2ccccc2C1=O)Oc1ccc(Cl)cc1	middle class
COc1ccc(CNCCC(c2ccc(F)cc2)c2ccc(OC)cc2)cc1 (centres undefined)	high class
C/C(=N\Nc1nc2c(s1)CCCC2)c1ccccc1	middle class
CCSc1nnc(-c2ccncc2)n1Cc1ccccc1	low class
Cc1ccc(Cn2nnnc2CN2CCC(c3nc4ccc(Cl)cc4[nH]3)CC2)cc1	middle class

Turning to the following compound.
Problem: Hi, small favor: classify COc1ccc(NCc2ccc([N+](=O)[O-])s2)c(OC)c1 by its inhibition when you get a moment.
Result: high class

====

Please go through the items and note down their inhibition.
Experiment: ASC/caspase-1 reporter retest in S. cerevisiae at one dose, specificity check for NALP1 project (AID 488857)
Conditions: S. cerevisiae ASC/Caspase-1, beta-galactosidase luminescence, 24 h; at 10 µM; active compounds read high
In all, about 1,400 compounds went through this assay and about 560 (40%) were called active. The set was probably picked from earlier hits. The list shows a part of the results.
Numbers only, in %.

Worked examples, 2 compounds total:
compound	measurement.units	inhibition
COc1ccc(OCCCC(=O)NCC(C)C)cc1	%	39.5
COc1ccc(OCC#CCNC(C)(C)C)cc1	%	30.3

Now for another entry.
Problem: Which inhibition is listed for CCOC(=O)C1CCCN(Cc2ccc(OCC)cc2)C1 (stereo not drawn) ?
Result: 30.4
